Biological target: human recombinant LRRK2 protein (Homo sapiens (Human), UniProt Q5S007)
Sequence (Q5S007 whole entry): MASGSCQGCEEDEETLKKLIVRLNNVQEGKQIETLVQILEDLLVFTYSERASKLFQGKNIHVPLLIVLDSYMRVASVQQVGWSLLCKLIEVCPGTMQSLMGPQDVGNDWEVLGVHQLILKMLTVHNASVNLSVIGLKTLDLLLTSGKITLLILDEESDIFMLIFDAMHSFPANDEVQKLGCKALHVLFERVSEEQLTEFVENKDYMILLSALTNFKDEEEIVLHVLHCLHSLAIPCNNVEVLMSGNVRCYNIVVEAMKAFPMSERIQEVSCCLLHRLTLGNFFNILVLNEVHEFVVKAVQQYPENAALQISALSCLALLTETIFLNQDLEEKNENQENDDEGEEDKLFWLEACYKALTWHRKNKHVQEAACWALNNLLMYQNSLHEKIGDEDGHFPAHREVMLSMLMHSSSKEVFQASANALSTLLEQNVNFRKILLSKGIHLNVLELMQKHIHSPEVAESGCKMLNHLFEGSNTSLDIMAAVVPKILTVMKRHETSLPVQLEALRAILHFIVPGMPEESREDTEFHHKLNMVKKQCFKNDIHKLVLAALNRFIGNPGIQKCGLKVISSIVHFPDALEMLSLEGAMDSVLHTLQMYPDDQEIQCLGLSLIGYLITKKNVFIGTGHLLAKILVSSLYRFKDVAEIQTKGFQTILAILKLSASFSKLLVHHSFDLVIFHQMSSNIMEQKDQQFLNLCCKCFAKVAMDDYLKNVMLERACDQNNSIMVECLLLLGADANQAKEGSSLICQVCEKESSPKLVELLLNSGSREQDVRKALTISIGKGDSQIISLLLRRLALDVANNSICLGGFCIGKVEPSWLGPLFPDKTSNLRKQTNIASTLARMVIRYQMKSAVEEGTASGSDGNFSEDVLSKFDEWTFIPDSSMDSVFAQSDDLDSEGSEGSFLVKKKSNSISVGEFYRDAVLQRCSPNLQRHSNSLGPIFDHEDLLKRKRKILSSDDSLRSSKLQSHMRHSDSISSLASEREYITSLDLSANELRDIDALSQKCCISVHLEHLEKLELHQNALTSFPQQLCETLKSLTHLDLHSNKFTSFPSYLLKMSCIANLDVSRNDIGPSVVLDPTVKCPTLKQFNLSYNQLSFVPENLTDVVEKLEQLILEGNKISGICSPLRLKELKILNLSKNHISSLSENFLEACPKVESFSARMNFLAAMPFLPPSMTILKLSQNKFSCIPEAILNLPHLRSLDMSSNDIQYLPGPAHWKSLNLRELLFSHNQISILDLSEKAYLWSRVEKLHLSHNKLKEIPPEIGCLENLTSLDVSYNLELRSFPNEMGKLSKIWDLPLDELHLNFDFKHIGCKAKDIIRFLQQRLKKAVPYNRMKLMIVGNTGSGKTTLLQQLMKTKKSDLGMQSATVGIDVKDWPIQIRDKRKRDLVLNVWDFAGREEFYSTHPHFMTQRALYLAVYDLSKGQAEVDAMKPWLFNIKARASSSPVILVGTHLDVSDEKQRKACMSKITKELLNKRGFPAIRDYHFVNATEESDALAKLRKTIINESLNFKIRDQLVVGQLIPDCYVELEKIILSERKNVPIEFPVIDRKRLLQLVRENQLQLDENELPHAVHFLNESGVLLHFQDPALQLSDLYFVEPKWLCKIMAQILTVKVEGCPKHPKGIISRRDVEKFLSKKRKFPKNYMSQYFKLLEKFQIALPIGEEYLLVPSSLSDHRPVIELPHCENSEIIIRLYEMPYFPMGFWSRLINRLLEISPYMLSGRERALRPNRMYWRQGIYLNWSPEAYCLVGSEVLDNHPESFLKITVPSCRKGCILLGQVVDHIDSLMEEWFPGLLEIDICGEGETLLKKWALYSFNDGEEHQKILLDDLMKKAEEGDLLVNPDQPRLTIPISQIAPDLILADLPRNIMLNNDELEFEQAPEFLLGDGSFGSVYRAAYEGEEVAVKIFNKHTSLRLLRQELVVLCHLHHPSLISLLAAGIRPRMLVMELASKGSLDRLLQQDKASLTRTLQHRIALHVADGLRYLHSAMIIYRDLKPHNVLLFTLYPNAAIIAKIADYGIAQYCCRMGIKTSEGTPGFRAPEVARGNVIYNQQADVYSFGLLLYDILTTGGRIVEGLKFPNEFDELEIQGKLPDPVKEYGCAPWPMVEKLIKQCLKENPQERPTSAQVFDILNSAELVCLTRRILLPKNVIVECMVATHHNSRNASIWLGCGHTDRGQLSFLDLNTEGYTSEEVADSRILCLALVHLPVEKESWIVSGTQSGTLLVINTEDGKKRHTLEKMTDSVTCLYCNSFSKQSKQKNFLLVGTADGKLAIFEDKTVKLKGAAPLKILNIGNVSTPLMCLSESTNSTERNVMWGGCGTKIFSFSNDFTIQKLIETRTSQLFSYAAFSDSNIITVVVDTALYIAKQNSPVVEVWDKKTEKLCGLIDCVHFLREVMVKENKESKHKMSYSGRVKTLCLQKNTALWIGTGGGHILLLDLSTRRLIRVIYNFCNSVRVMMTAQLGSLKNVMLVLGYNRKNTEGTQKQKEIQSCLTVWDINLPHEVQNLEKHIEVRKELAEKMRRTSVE
Test: LRRK2 Kinase Activity Assay (ADP-Glo)
Settings: LRRK2 wt; LRRKtide peptide and ATP substrates; 1h-incubation at 37° C.
pIC50: −log10 of the molar value.

{"compound": "CCC1OC(=O)NCCCOc2ccc3[nH]nc(c3c2)-c2cccc1c2 (single isomer, unassigned) [Example 115]", "pIC50": "6.00 to 7.00"}
{"compound": "C[C@@H]1CCNC(=O)OCc2cccc(n2)-c2n[nH]c3ccc(cc23)O1 [Example 114]", "pIC50": "> 8.00"}
{"compound": "C[C@@H]1CCNC(=O)OCc2cncc(c2)-c2n[nH]c3ccc(cc23)O1 [Example 102]", "pIC50": "> 8.00"}
{"compound": "COCCN1CCN(c2cc3cc(c2)-c2n[nH]c4ccc(cc24)OCCCNC(=O)OC3)CC1 [Example 46]", "pIC50": "> 8.00"}
{"compound": "Cc1cc2cc(c1)-c1n[nH]c3ccc(cc13)OCCCN(C)C(=O)OC2 [Example 54]", "pIC50": "> 8.00"}
{"compound": "O=C1NCCCOc2ccc3[nH]nc(c3c2)-c2cc(cc(N3C[C@@H]4C[C@H]3CO4)c2)CO1 [Example 40]", "pIC50": "> 8.00"}
{"compound": "C[C@@H]1CCNC(=O)O[C@@H](C)c2cncc(n2)-c2n[nH]c3ccc(cc23)O1 [Example 154]", "pIC50": "7.00 to 8.00"}
{"compound": "CN1CC=C(c2cc3cc(c2)-c2n[nH]c4ccc(cc24)OCCCNC(=O)OC3)CC1 [Example 39]", "pIC50": "> 8.00"}
{"compound": "COc1c(F)cc2cc1C(C)OC(=O)NCCCOc1ccc3[nH]nc-2c3c1 (centres unmarked) [Example 89]", "pIC50": "6.00 to 7.00"}
{"compound": "C[C@@H]1CCNC(=O)OCc2cccc(c2)-c2n[nH]c3c(F)cc(cc23)O1 [Example 153]", "pIC50": "> 8.00"}
{"compound": "O=C1NCCCOc2ccc3[nH]nc(c3c2)-c2cc(cc(N3CCC4(COC4)C3)c2)CO1 [Example 14]", "pIC50": "> 8.00"}
{"compound": "CCC1OC(=O)NCCCOc2ccc3[nH]nc(c3c2)-c2cccc1c2 (single isomer, unassigned) [Example 116]", "pIC50": "> 8.00"}
{"compound": "C[C@H]1CCNC(=O)OCc2cccc(c2)-c2n[nH]c3ccc(cc23)O1 [Example 62]", "pIC50": "> 8.00"}
{"compound": "COc1ccc2cc1COC(=O)NCCCOc1ccc3[nH]nc-2c3c1 [Example 19]", "pIC50": "> 8.00"}
{"compound": "O=C1NCCCOc2ccc3[nH]nc(c3c2)-n2cnc(c2)CCO1 [Example 126]", "pIC50": "7.00 to 8.00"}
{"compound": "CC1CCOc2ccc3[nH]nc(c3c2)-c2cccc(c2)COC(=O)N1 (centres unmarked) [Example 72]", "pIC50": "> 8.00"}
{"compound": "Cc1c(F)cc2cc1C(C)OC(=O)NCCCOc1ccc3[nH]nc-2c3c1 (centres unmarked) [Example 88]", "pIC50": "7.00 to 8.00"}
